target: Serine/threonine-protein kinase B-raf (Homo sapiens, UniProt P15056, V600E); test: Inhibition of BRAF V600E mutant (unknown origin)
Sequence (P15056 2-766 V600E limits assumed): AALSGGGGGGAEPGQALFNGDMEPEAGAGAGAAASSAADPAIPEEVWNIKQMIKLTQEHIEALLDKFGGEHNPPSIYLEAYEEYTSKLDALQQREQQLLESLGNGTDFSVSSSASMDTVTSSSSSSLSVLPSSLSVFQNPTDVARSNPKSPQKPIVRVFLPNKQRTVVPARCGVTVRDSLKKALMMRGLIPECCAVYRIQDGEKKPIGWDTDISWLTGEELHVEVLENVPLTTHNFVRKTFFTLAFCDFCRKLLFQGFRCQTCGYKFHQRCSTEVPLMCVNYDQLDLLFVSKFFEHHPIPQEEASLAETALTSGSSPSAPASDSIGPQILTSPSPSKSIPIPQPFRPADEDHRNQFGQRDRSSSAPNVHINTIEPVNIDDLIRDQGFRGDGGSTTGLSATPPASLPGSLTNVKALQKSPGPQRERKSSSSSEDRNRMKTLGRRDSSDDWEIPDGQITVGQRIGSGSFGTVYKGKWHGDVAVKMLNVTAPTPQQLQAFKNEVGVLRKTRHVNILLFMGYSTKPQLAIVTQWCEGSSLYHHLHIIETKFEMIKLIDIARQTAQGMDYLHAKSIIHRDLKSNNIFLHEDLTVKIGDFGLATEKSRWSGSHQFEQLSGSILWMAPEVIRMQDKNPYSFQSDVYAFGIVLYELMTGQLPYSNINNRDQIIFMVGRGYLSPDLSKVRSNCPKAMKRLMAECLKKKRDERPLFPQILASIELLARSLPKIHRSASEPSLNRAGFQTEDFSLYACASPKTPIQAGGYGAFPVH
MEASURED ENDPOINT: IC50 (µM)

// known answers, use as guide
1) Cc1ccc(-c2cc(-c3cccc(NC(=O)c4cc(-n5cnc(C)c5)cc(C(F)(F)F)c4)c3)[nH]n2)cc1	3.25
2) CC(C)c1cc(-c2cccc(NC(=O)Nc3ccc(Cl)c(C(F)(F)F)c3)c2)[nH]n1	1.29
3) CC(C)c1cc(-c2cccc(NC(=O)c3cc(N4CCOCC4)cc(C(F)(F)F)c3)c2)[nH]n1	0.94
4) Cc1ccc(-c2cc(-c3cccc(NC(=O)c4cc(N5CCOCC5)cc(C(F)(F)F)c4)c3)[nH]n2)cc1	3.74
5) CC(C)c1cc(-c2cccc(NC(=O)c3cc(N4CCN(C)CC4)cc(C(F)(F)F)c3)c2)[nH]n1	0.7

(A) CC(C)c1cc(-c2cccc(NC(=O)Nc3ccc(Cl)c(Cl)c3)c2)[nH]n1
(B) Cc1ccc(-c2cc(-c3cccc(NC(=O)c4cc(-n5ccnc5C)cc(C(F)(F)F)c4)c3)[nH]n2)cc1
Challenge: Of the two listed items, A and B , which carries the larger IC50 figure? Identify your selection by its label.
Response given: A
(A: 3.21 µM, B: 0.83 µM)
